The reported numbers originate from patent US20230257449A1.

The binders listed here are annotated with their EC50.
# ASSAYED_SYSTEM: H3 (A/Brisbane/10/2007) (influenza A virus H3 …)
# METHOD_NOTES: ELISA
VALUE_TYPE: EC50

INSERT INTO assay_data (binder, result) VALUES
  ('VH 7 / VL 6 (antibody, V domains shown) VH: EVQLLESGGGLVQPGGSLRLSCAASGFTFSSYAMHWVRQAPGKGLEWVSVISYDANYKYYADSVKGRFTISRDNSKNTLYLQMNSLRAEDTAVYYCAKDSQLRSLLYFEWLSQGYFDYWGQGTTLTVSS VL: EIVMTQSPATLSVSPGERATLSCRSSQSITFDYKNYLAWYQQKPGQAPRLLIYWGSTRATGIPARFSGSGSGTEFTLTISSLQSEDFAVYYCQQHYRTPPSFGQGTKVEIK', '0.274 nM'),
  ('VH 6 / VL 2 (antibody, V domains shown) VH: QVQLVESGGGVVQPGRSLRLSCAASGFTFDTYAMHWVRQAPGKGLEWVAVISYDANYKYYADSVKGRFTISRDNSKNTLYLQMNSLRAEDTAVYYCARDSRLRSLLYFEWLSQGYFDYWGQGTLVTVSS VL: DIQMTQSPSSLSASVGDRVTITCRSSQSITFDYKNYLAWYQQKPGKAPKLLIYWGSSLQSGVPSRFSGSGSGTDFTLTISSLQPEDFATYYCQQHYRTPPSFGQGTKVEIK', '0.108 nM'),
  ('VH 5 / VL 6 (antibody, V domains shown) VH: QVQLVESGGGVVQPGRSLRLSCAASGFTFSTYAMHWVRQAPGKGLEWVCVISYDANYKYYADSVKGRFTCSRDNSKNTLYLQMNSLRAEDTAVYYCARDSRLRSLLYFEWLSQGYFDYWGQGTLVTVSS VL: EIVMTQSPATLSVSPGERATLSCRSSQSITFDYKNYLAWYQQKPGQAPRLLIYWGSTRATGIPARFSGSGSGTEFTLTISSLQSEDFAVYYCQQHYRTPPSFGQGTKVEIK', '0.0295 nM');
